Biological target: human ether-à-go-go-related gene (hERG) potassium channel (human, UniProt Q12809)
Sequence (Q12809 whole entry, looked up): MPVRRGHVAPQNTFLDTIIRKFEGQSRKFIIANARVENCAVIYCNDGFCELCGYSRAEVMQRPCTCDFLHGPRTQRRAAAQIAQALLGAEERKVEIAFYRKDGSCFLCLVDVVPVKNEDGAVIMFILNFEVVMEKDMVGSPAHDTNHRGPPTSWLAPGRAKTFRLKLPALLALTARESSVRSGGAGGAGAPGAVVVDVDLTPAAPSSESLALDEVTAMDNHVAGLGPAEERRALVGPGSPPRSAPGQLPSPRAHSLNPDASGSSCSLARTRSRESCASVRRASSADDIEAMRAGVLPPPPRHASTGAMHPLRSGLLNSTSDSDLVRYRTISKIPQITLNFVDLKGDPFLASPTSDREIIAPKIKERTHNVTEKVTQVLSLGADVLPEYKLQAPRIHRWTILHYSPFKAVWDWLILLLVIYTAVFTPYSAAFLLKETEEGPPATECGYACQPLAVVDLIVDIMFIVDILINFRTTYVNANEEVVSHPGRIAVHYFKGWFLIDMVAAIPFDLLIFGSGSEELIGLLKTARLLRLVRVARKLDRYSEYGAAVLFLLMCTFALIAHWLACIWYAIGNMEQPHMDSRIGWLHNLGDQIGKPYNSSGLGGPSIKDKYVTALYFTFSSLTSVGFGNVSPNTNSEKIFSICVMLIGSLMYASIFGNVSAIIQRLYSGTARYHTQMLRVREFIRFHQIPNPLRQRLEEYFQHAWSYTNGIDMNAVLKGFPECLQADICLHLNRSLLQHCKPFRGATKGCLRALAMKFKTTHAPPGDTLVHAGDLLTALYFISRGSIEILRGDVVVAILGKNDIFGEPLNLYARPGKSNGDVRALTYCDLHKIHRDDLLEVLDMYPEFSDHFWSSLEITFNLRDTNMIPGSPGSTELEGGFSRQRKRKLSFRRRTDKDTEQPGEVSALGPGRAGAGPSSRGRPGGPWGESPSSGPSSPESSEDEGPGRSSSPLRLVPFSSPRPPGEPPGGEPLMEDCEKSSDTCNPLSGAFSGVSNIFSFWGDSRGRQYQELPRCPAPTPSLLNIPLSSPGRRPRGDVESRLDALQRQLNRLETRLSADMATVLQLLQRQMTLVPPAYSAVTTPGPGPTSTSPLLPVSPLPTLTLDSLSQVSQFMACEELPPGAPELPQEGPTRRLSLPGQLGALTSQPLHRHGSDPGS
Experiment: primary screen, population patch clamp on CHO cells stably expressing hERG; higher = less effect of the substance
In all, about 310,000 compounds went through this assay and about 2,200 (0.71%) showed an effect of 50% or more. The effect is printed as a negative number. The entries come from a sample that favours strong results as a whole.
endpoint.name: hERG current change (%, negative = inhibition) at 1uM (%)
One number for each entry, in %.

Below, 5 compounds whose answers are already recorded.
compound: O=C(CC1Sc2ccccc2NC1=O)NNC(=O)Nc1ccc(Cl)cc1 (stereo not shown)
reading: 9.26
--
compound: C=CCn1c(SCC(=O)C(C)(C)C)nnc1-c1cccs1
reading: -9.56
--
compound: Cc1c(C(=O)N2CCC(N3CCSCC3)CC2)oc2c(F)cccc12
reading: 2.81
--
compound: Cc1cc(C)n(Cc2ccc(NC(=O)c3ccc(COc4ccccc4Br)cc3)cc2)n1
reading: -8.42
--
compound: CC(C)C(NC(=O)C1CCCCC1)C(=O)N1CCN(c2ccc(F)cc2)CC1 (stereo not shown)
reading: -32.1

Take each entry in turn and give its hERG current change (%, negative = inhibition) at 1uM.
1. CCN1/C(=C/c2cc[n+](C)cc2)C=Cc2cc(C)ccc21.[I-]
2. Cc1ccc(NC(=O)COC(=O)CN2C(=O)COc3ccccc32)cc1
3. COC(=O)C(C(=O)Nc1cccc(Cl)c1C)C1CCCC1 (stereo not shown)
4. CCOc1cc(NC(=S)NCCCN2CCOCC2)c(OCC)cc1NC(=O)c1cccc(F)c1
5. CCOC(=O)C1CCN(C2CCN(C(=O)c3oc4c(F)cccc4c3C)CC2)CC1
6. Cc1ccc(-c2nc(Nc3cccc(C)c3)sc2CC(=O)O)cc1
7. OCC1(Cc2ccccc2)CCN(C2CCN(c3ccc(F)c(F)c3)CC2)CC1
8. OCCC1CN(C2CCN(c3ccccc3)CC2)CCN1Cc1ccc(F)c(F)c1 (stereo not shown)

-55.5
13.2
5.04
-0.782
-67
9.35
-124
-71.1

Take each entry in turn and give its hERG current change (%, negative = inhibition) at 1uM.
1. Cc1ccccc1[C@]1(C)ON(c2ccccc2C(F)(F)F)C1=O
2. COCC(C)n1c(C)cc(C(=O)CN2c3cccc4cccc(c34)S2(=O)=O)c1C (stereo not shown)
3. C/C(=N\NC(=O)c1cc(C)[nH]n1)c1ccc(-c2ccccc2)cc1
4. CCCCn1c(CCNC(=O)c2ccco2)nc2ccccc21
5. COc1ccc(C(=O)NC(=S)NCc2ccco2)cc1
6. O=C(N1CCN(CCO)CC1)N1c2ccccc2C=Cc2ccccc21

1: 14.2; 2: 7.82; 3: 13.7; 4: 7.54; 5: 15; 6: 13

Take each entry in turn and give its hERG current change (%, negative = inhibition) at 1uM.
1. OCc1ncccc1O
2. COc1ccc(C(=O)N2CCCC(Nc3ccc(C)c(C)c3)C2)cc1 (stereo not shown)
3. O=C1OC(Nc2ccc(Cl)cn2)c2ccccc21 (stereo not shown)

8.62
-0.108
2.2
